# Assay name: Pharmacokinetics in the rat, solid form (powder in mini-capsules)
# Type: in vivo
# Condition set: male, SD, rat, in vivo, po
Observed property: half-life

Given item O=c1c(-c2ccc(O)cc2)coc2cc(OCOP(=O)(O)O)cc(O)c12 , the value recorded as its half-life is ~120 min

---

# Assay name: Pharmacokinetics in the rat, dosing in solution
# Condition set: in vivo; solution, 25 mg/Kg nominal, fasted male SD rat; read-out: mean cmax of dosed compound in plasma
Observed property: Cmax

Given item O=c1c(-c2ccc(O)cc2)coc2cc(O)cc(O)c12 , the value recorded as its Cmax is ~300 ng/mL

---

Examples of compounds with documented Percentage remaining at time: 6 hours follow.
# Assay name: Stability in simulated gastric fluid (SGF)
# Type: in vitro ADME
# Condition set: SGF pH 1.2, 37° C., 2 μM, 6 hours
Dear colleague, please return just the value in %, with no unit written.

>>> result_number("O=c1c(-c2ccc(O)cc2)coc2cc(OCOP(=O)(O)O)cc(O)c12")
116
>>> result_number("O=c1c(-c2ccc(OCOP(=O)(O)O)cc2)coc2cc(O)cc(O)c12")
83.8
>>> result_number("COc1ccc2[nH]c([S+]([O-])Cc3ncc(C)c(OC)c3C)nc2c1 (centres unmarked) [Omeprazole, omeprazole, reference compound]")
4.2
>>> result_number("CC(C)(CCCOP(=O)(O)O)C(=O)Oc1ccc(-c2coc3cc(O)cc(O)c3c2=O)cc1")
114

Now let's try a different one.
Given item O=c1c(-c2ccc(OCOP(=O)(O)O)cc2)coc2cc(OCOP(=O)(O)O)cc(O)c12 , the value recorded as its Percentage remaining at time: 6 hours is 96.1

From: patent US20250170154A1
